Below, each entry is listed alongside its reported abundance fitness.
B1: Ankyrin-2, residues 3571 to 3650; numbered along this chain, Q01484 (parent)
chain: ERLAYIADHLGFSWTELARELDFTEEQIHQIRIENPNSLQDQSHALLKYWLERDGKHATDTNLVECLTKINRMDIVHLME

Variants of: B1
PROCEDURE DETAILS: abundance fitness (aPCA) (normalised: wild type 0, dead -1); higher = more abundant; growth selection in yeast, the domain comes from the species named
RUN PARAMETERS: Homo sapiens
// no unit string in output, number only

Solved entries (count: 10):
RESIDUES	abundance fitness
ERLAYIADHLGFSWTELARELDFTEEQIHQIRIENPNSLQDQSHALLKYWLERDYKHATDTNLVECLTKINRMDIVHLME [G55Y]	-0.052
ERLAYIADHLGFSWTELARELDFTEEQIHFIRIENPNSLQDQSHALLKYWLERDGKHATDTNLVECLTKINRMDIVHLME [Q30F]	-0.023
ERLAYIADHLGFSWTELARELDFTEEQIHQIRFENPNSLQDQSHALLKYWLERDGKHATDTNLVECLTKINRMDIVHLME [I33F]	-0.019
ERLAYIADHLGFSWTELARELDFTEEQITQIRIENPNSLQDQSHALLKYWLERDGKHATDTNLVECLTKINRMDIVHLME [H29T]	-0.005
ERLAYIADHLGFSWTELARELDFTEEQSHQIRIENPNSLQDQSHALLKYWLERDGKHATDTNLVECLTKINRMDIVHLME [I28S]	-0.203
ERLAYIADHLGFSWTELARELDFTEESIHQIRIENPNSLQDQSHALLKYWLERDGKHATDTNLVECLTKINRMDIVHLME [Q27S]	0.006
ERLAYIADHLGFSWTELARELDFTEEQIHIIRIENPNSLQDQSHALLKYWLERDGKHATDTNLVECLTKINRMDIVHLME [Q30I]	-0.076
ERLAYIADHLGDSWTELARELDFTEEQIHQIRIENPNSLQDQSHALLKYWLERDGKHATDTNLVECLTKINRMDIVHLME [F12D]	-0.312
ERLAYIADHLGFSWTELARELDFTEEQIHCIRIENPNSLQDQSHALLKYWLERDGKHATDTNLVECLTKINRMDIVHLME [Q30C]	-0.044
ERLAYIEDHLGFSWTELARELDFTEEQIHQIRIENPNSLQDQSHALLKYWLERDGKHATDTNLVECLTKINRMDIVHLME [A7E]	-0.265

Hello, please tell me recorded abundance fitness for this one: ERLAYNADHLGFSWTELARELDFTEEQIHQIRIENPNSLQDQSHALLKYWLERDGKHATDTNLVECLTKINRMDIVHLME [I6N]
-0.6

Hello, please tell me recorded abundance fitness for this one: ERLAYIADHLGFSWTELRRELDFTEEQIHQIRIENPNSLQDQSHALLKYWLERDGKHATDTNLVECLTKINRMDIVHLME [A18R]
-1.37

Hello, please tell me recorded abundance fitness for this one: ERLAYIADHLGFSWTELARELDFTEEQIHQIRIENPNSLQDQSHALLKYWLERDGKHRTDTNLVECLTKINRMDIVHLME [A58R]
-0.067

Hello, please tell me recorded abundance fitness for this one: ERLAYIADHLGFSWTEAARELDFTEEQIHQIRIENPNSLQDQSHALLKYWLERDGKHATDTNLVECLTKINRMDIVHLME [L17A]
-0.134

Hello, please tell me recorded abundance fitness for this one: ERLAYIADHLGFSWTELARELDFTEEMIHQIRIENPNSLQDQSHALLKYWLERDGKHATDTNLVECLTKINRMDIVHLME [Q27M]
-0.006

Hello, please tell me recorded abundance fitness for this one: ERLAYIADHLGFSWTELARELDFTEEVIHQIRIENPNSLQDQSHALLKYWLERDGKHATDTNLVECLTKINRMDIVHLME [Q27V]
-0.042

Hello, please tell me recorded abundance fitness for this one: ERLAYIADHLGFSWTELARELDFTEEQIHQIRIENPNSLQDQSHALLKYWLERDGKDATDTNLVECLTKINRMDIVHLME [H57D]
-0.061

Hello, please tell me recorded abundance fitness for this one: ERLWYIADHLGFSWTELARELDFTEEQIHQIRIENPNSLQDQSHALLKYWLERDGKHATDTNLVECLTKINRMDIVHLME [A4W]
-0.11

Hello, please tell me recorded abundance fitness for this one: ERLAYIADHLGFSWTELARELDFTEEQIDQIRIENPNSLQDQSHALLKYWLERDGKHATDTNLVECLTKINRMDIVHLME [H29D]
-0.079
